molecular target: His-His-USP7 (aa208-560, [C315A]) (Homo sapiens (Human), UniProt Q93009, C315A); experiment: Evaluation of the inhibition of USP7 by Fluorescence Intensity (FLINT) readings; type: biochemical; details: 0.25 nM USP7, 60 minutes at 30° C. preincubation, 500 nM Ubiquitin-Rhodamine-110 substrate, 50% reduction in kinetic rate
Sequence (Q93009 208-560 C315A): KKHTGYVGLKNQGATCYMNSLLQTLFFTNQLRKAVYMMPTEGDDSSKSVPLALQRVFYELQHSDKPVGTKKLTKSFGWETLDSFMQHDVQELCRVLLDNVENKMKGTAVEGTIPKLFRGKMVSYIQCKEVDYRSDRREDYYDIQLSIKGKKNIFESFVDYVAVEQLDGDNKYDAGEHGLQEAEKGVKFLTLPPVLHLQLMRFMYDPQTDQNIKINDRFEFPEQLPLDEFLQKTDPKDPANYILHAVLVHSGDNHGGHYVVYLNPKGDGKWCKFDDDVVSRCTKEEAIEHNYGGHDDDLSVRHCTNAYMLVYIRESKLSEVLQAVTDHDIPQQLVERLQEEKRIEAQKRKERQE
As shown below, each of these molecules has a reported IC50 value.
QUANTITY_MEASURED: IC50 (nM)

[
  {
    "ITEM_SMILES": "O=C([C@@H]1CCN(CC(F)(F)F)C[C@H]1c1ccccc1)N1CCC(O)(Cn2cnc3[nH]ccc3c2=O)CC1",
    "QUANTITATIVE_RESULT": 1200
  },
  {
    "ITEM_SMILES": "COc1ccc(-n2ccc3c(=O)n(CC4(O)CCN(C(=O)[C@@H]5CCN(C)C[C@H]5c5ccccc5)CC4)cnc32)cc1",
    "QUANTITATIVE_RESULT": 52.4
  },
  {
    "ITEM_SMILES": "COc1ccc(-n2ncc3c(=O)n(CC4(O)CCN(C(=O)[C@@H]5CC[N+](C)(C)C[C@H]5c5ccccc5)CC4)cnc32)cc1",
    "QUANTITATIVE_RESULT": 860
  },
  {
    "ITEM_SMILES": "COc1ccc(-n2ccc3c(=O)n(CC4(O)CCN(C(=O)[C@@H]5CCN(C(C)=O)C[C@H]5c5ccccc5)CC4)cnc32)cc1",
    "QUANTITATIVE_RESULT": 96.1
  },
  {
    "ITEM_SMILES": "COc1cccc(-n2ccc3c(=O)n(CC4(O)CCN(C(=O)[C@@H]5CCN(C(C)=O)C[C@H]5c5ccccc5)CC4)cnc32)c1",
    "QUANTITATIVE_RESULT": 88.4
  },
  {
    "ITEM_SMILES": "CC(=O)N1CC[C@@H](C(=O)N2CCC(O)(Cn3cnc4c(ccn4-c4ccc(F)cc4)c3=O)CC2)[C@H](c2ccccc2)C1",
    "QUANTITATIVE_RESULT": 102
  },
  {
    "ITEM_SMILES": "O=C([C@@H]1CCNC[C@H]1c1ccccc1)N1CCC(O)(Cn2cnc3c(ccn3-c3ccc(F)cc3)c2=O)CC1",
    "QUANTITATIVE_RESULT": 37.7
  }
]

---

Biological target: His-His-USP7 (aa208-560, [C315A]) (Homo sapiens (Human), UniProt Q93009, C315A)
Assay: Evaluation of the inhibition of USP7 by Fluorescence Intensity (FLINT) readings
Format: biochemical
Conditions: 0.25 nM USP7, 60 minutes at 30° C. preincubation, 500 nM Ubiquitin-Rhodamine-110 substrate, 50% reduction in kinetic rate
Experimental: USP7 activity was measured using Rhodamine-110 c-terminal labelled Ubiquitin as a substrate (Viva Biosciences). Incubation with USP7 results in the release of Rhodamine-110 leading to an increase in fluorescence which can be used in the continuous measurement of USP7 activity. […] The inhibition of increasing doses of compound was expressed as a percentage reduction in kinetic rate compared to the kinetic rates established between ‘DMSO only’ and ‘total inhibition’ controls (no USP7). […]
Use IC50 to assign classes; range list: L (below 0.05 µM), M (0.05 µM to below 0.07 µM), H (0.07 µM or more)

[
  {
    "ITEM_SMILES": "CN1CC[C@@H](C(=O)N2CCC(O)(Cn3cnc4c(ccn4-c4ccccc4)c3=O)CC2)[C@H](c2ccccc2)C1",
    "CATEGORY_LABEL": "H"
  },
  {
    "ITEM_SMILES": "CC(C)(C)C(=O)N1CC[C@@H](C(=O)N2CCC(O)(Cn3cnc4c(ccn4-c4ccccc4)c3=O)CC2)[C@H](c2ccccc2)C1",
    "CATEGORY_LABEL": "H"
  },
  {
    "ITEM_SMILES": "O=C([C@@H]1CCNC[C@H]1c1ccccc1)N1CCC(O)(Cn2cnc3c(cnn3-c3ccccc3)c2=O)CC1",
    "CATEGORY_LABEL": "M"
  },
  {
    "ITEM_SMILES": "O=C([C@@H]1CCNC[C@H]1c1ccccc1)N1CCC(O)(Cn2cnc3c(ccn3-c3cccc(Cl)c3)c2=O)CC1",
    "CATEGORY_LABEL": "M"
  },
  {
    "ITEM_SMILES": "CC(C)CN1CC[C@@H](C(=O)N2CCC(O)(Cn3cnc4c(ccn4-c4ccccc4)c3=O)CC2)[C@H](c2ccccc2)C1",
    "CATEGORY_LABEL": "H"
  },
  {
    "ITEM_SMILES": "COc1cc(-n2ccc3c(=O)n(CC4(O)CCN(C(=O)[C@@H]5CCNC[C@H]5c5ccccc5)CC4)cnc32)ccc1F",
    "CATEGORY_LABEL": "L"
  },
  {
    "ITEM_SMILES": "COc1ccc(-n2ncc3c(=O)n(CC4(O)CCN(C(=O)[C@@H]5CCN(C(=O)OC(C)(C)C)C[C@H]5c5ccccc5)CC4)cnc32)cc1",
    "CATEGORY_LABEL": "M"
  },
  {
    "ITEM_SMILES": "O=C([C@@H]1CCNC[C@H]1c1ccccc1)N1CCC(O)(Cn2cnc3c(cnn3-c3ccc4c(c3)OCCO4)c2=O)CC1",
    "CATEGORY_LABEL": "L"
  },
  {
    "ITEM_SMILES": "CC(=O)N1CC[C@@H](C(=O)N2CCC(O)(Cn3cnc4c(ccn4-c4ccc(Cl)cc4)c3=O)CC2)[C@H](c2ccccc2)C1",
    "CATEGORY_LABEL": "H"
  },
  {
    "ITEM_SMILES": "CC(=O)N1CC[C@@H](C(=O)N2CCC(O)(Cn3cnc4c(ccn4-c4cccc(Cl)c4)c3=O)CC2)[C@H](c2ccccc2)C1",
    "CATEGORY_LABEL": "H"
  }
]

---

molecular target: His-His-USP7 (aa208-560, [C315A]) (Homo sapiens (Human), UniProt Q93009, C315A); assay: Evaluation of the inhibition of USP7 by Fluorescence Intensity (FLINT) readings; format: biochemical; conditions: 0.25 nM USP7, 60 minutes at 30° C. preincubation, 500 nM Ubiquitin-Rhodamine-110 substrate, 50% reduction in kinetic rate
# IC50 annotations
QUANTITY_MEASURED: IC50 (nM)

[
  {
    "ITEM_SMILES": "CC(C)C(=O)N1CC[C@@H](C(=O)N2CCC(O)(Cn3cnc4c(ccn4-c4ccccc4)c3=O)CC2)[C@H](c2ccccc2)C1",
    "UNIT_TEXT": "nM",
    "QUANTITATIVE_RESULT": 103
  },
  {
    "ITEM_SMILES": "O=C([C@@H]1CCNC[C@H]1c1ccccc1)N1CCC(O)(Cn2cnc3c(ccn3-c3ccccn3)c2=O)CC1",
    "UNIT_TEXT": "nM",
    "QUANTITATIVE_RESULT": 394
  },
  {
    "ITEM_SMILES": "CC(C)(C)CC(=O)N1CC[C@@H](C(=O)N2CCC(O)(Cn3cnc4c(ccn4-c4ccccc4)c3=O)CC2)[C@H](c2ccccc2)C1",
    "UNIT_TEXT": "nM",
    "QUANTITATIVE_RESULT": 88.5
  },
  {
    "ITEM_SMILES": "O=C([C@@H]1CCNC[C@H]1c1ccccc1)N1CCC(O)(Cn2cnc3c(ccn3-c3ccccc3)c2=O)CC1",
    "UNIT_TEXT": "nM",
    "QUANTITATIVE_RESULT": 31.6
  },
  {
    "ITEM_SMILES": "CC(C)(C)OC(=O)N1CC[C@@H](C(=O)N2CCC(O)(Cn3cnc4sccc4c3=O)CC2)[C@H](c2ccccc2)C1",
    "UNIT_TEXT": "nM",
    "QUANTITATIVE_RESULT": 128
  },
  {
    "ITEM_SMILES": "COc1ccc(-n2ccc3c(=O)n(CC4(O)CCN(C(=O)[C@@H]5CCNC[C@H]5c5ccccc5)CC4)cnc32)cc1",
    "UNIT_TEXT": "nM",
    "QUANTITATIVE_RESULT": 28.7
  },
  {
    "ITEM_SMILES": "CN1CC[C@@H](C(=O)N2CCC(O)(Cn3cnc4c(ccn4-c4cccc(Cl)c4)c3=O)CC2)[C@H](c2ccccc2)C1",
    "UNIT_TEXT": "nM",
    "QUANTITATIVE_RESULT": 64.8
  }
]

---

Each entry below carries its reported IC50.
target: His-His-USP7 (aa208-560, [C315A]) (Homo sapiens (Human), UniProt Q93009, C315A); assay: Evaluation of the inhibition of USP7 by Fluorescence Intensity (FLINT) readings; type: biochemical; settings: 0.25 nM USP7, 60 minutes at 30° C. preincubation, 500 nM Ubiquitin-Rhodamine-110 substrate, 50% reduction in kinetic rate
QUANTITY_MEASURED: IC50 (nM)

[
  {
    "ITEM_SMILES": "CN1CC[C@@H](C(=O)N2CCC(O)(Cn3cnc4c(ccn4-c4ccc(F)cc4)c3=O)CC2)[C@H](c2ccccc2)C1",
    "UNIT_TEXT": "nM",
    "QUANTITATIVE_RESULT": 74.8
  },
  {
    "ITEM_SMILES": "COc1ccc(-n2ccc3c(=O)n(CC4(O)CCN(C(=O)[C@@H]5CCN(C(=O)OC(C)(C)C)C[C@H]5c5ccccc5)CC4)cnc32)cc1",
    "UNIT_TEXT": "nM",
    "QUANTITATIVE_RESULT": 49.9
  },
  {
    "ITEM_SMILES": "COc1cc(-n2ccc3c(=O)n(CC4(O)CCN(C(=O)[C@@H]5CCN(C(=O)OC(C)(C)C)C[C@H]5c5ccccc5)CC4)cnc32)ccc1F",
    "UNIT_TEXT": "nM",
    "QUANTITATIVE_RESULT": 70.2
  },
  {
    "ITEM_SMILES": "CC(C)(C)OC(=O)N1CC[C@@H](C(=O)N2CCC(O)(Cn3cnc4c(ccn4-c4ccccn4)c3=O)CC2)[C@H](c2ccccc2)C1",
    "UNIT_TEXT": "nM",
    "QUANTITATIVE_RESULT": 274
  },
  {
    "ITEM_SMILES": "CC(=O)N1CC[C@@H](C(=O)N2CCC(O)(Cn3cnc4c(ccn4-c4ccccc4)c3=O)CC2)[C@H](c2ccccc2)C1",
    "UNIT_TEXT": "nM",
    "QUANTITATIVE_RESULT": 406
  },
  {
    "ITEM_SMILES": "O=C([C@@H]1CCNC[C@H]1c1ccccc1)N1CCC(O)(Cn2cnc3c(ccn3-c3ccc(Cl)cc3)c2=O)CC1",
    "UNIT_TEXT": "nM",
    "QUANTITATIVE_RESULT": 41.2
  }
]
